test: Toxicity liver stage against HepG2, at 10uM; assay type: cell-based; parameters: test concentration 10 uM, cell line HepG2-A16-CD81EGFP; conditions: human, HepG2-A16-CD81EGFP cells; read-out: INHIBITION
reported.metric: cytotoxicity at 10 µM (%)
Please respond with the number in % and leave the unit unwritten.

Note to self: cytotoxicity at 10 µM recorded for CN(CC(=O)N1CC(Oc2ccccc2Cl)C1)Cc1ccncc1 was -2.67

Note to self: cytotoxicity at 10 µM recorded for CN(c1ccc(C(=O)NCCCN2CCCCC2)c(Cl)c1)S(C)(=O)=O was -0.313

Note to self: cytotoxicity at 10 µM recorded for COCc1cccc(NS(=O)(=O)c2cc(C(=O)O)cs2)c1 was -4.69

Note to self: cytotoxicity at 10 µM recorded for CCCc1nc(N2Cc3cnn(Cc4ccc(F)cc4)c3C2)no1 was 17.3

Note to self: cytotoxicity at 10 µM recorded for CSCCCN1C[C@H](NC(=O)c2ccc(C#N)nc2)[C@@H](C2CC2)C1 was 2.72
